assayProcedure: Normal-phase TLC on silica gel 60 F254 (Rf)
Format: physicochemical
experimentalContext: water:methanol:acetonitrile 60:20:20, ammonium acetate pH 7.4
# NP (Rf from NP TLC plate) per record follows
measurementLabel: NP (Rf from NP TLC plate)

| compound | measuredResult |
| --- | --- |
| COC(=O)[C@@H]1CC2=CC(=O)CC[C@]2(C)[C@@]23O[C@@H]2C[C@@]2(C)[C@@H](CC[C@@]24CCC(=O)O4)[C@H]13 [eplerenone] | 0.94 |
| CN1CCC(=C2c3ccccc3CC(=O)c3sccc32)CC1 [ketotifen] | 0.34 |
| CN(C)CCc1c[nH]c2ccc(Cn3cncn3)cc12 [rizatriptan] | 0.2 |
| Oc1ncnc2[nH]ncc12 [allopurinnol] | 0.89 |
| CCOCCn1c(C2CCN(CCc3ccc(C(C)(C)C(=O)O)cc3)CC2)nc2ccccc21 [bilastine] | 0.46 |
| CC(=O)Oc1ccccc1C(=O)O [acetylsalicylic acid] | 0.89 |
| Cc1ccc(-c2cc(C(F)(F)F)nn2-c2ccc(S(N)(=O)=O)cc2)cc1 [celecoxib] | 0.98 |
| CN1CCC(=C2c3ccccc3C=Cc3ccccc32)CC1 [cyproheptadine] | 0.45 |
| CCOC(=O)[C@H](CCc1ccccc1)N[C@@H](C)C(=O)N1Cc2ccccc2C[C@H]1C(=O)O [quinapril] | 0.44 |
| CNC(=C[N+](=O)[O-])NCCSCc1ccc(CN(C)C)o1 [ranitidine] | 0.24 |
| CN(C)CCC=C1c2ccccc2COc2ccccc21 [doxepin] | 0.3 |
| O=C(CCCN1CCC(O)(c2ccc(Cl)cc2)CC1)c1ccc(F)cc1 [haloperidol] | 0.66 |
| O=C1CN=C(c2ccccn2)c2cc(Br)ccc2N1 [bromazepam] | 0.87 |
| CC(CN1c2ccccc2Sc2ccccc21)N(C)C (stereo not drawn) [promethazine] | 0.43 |
| CC(C)NCC(O)COc1ccc(CC(N)=O)cc1 (stereo not drawn) [atenolol] | 0.34 |

----------
assayProcedure: Reversed-phase TLC on RP-2 silanized plates (Rf)
Assay type: physicochemical
experimentalContext: silica gel 60 RP-2 F254 silanized; water:methanol:acetonitrile 60:20:20, ammonium acetate pH 7.4
Listing: RP (Rf from RP-2 TLC plate) of selected compounds

| compound | RP (Rf from RP-2 TLC plate) |
| --- | --- |
| CCN(Cc1ccncc1)C(=O)C(CO)c1ccccc1 (centres unmarked) | 0.83 |
| COCCc1ccc(OCC(O)CNC(C)C)cc1 (centres unmarked) | 0.28 |
| COc1ccc2cc([C@H](C)C(=O)O)ccc2c1 | 0.88 |
| CC(=O)S[C@@H]1CC2=CC(=O)CC[C@]2(C)[C@H]2CC[C@@]3(C)[C@@H](CC[C@@]34CCC(=O)O4)[C@H]12 | 0.78 |
| Fc1ccc([C@@H]2CCNC[C@H]2COc2ccc3c(c2)OCO3)cc1 | 0.6 |
| CC(C)NCC(O)COc1ccc(CC(N)=O)cc1 (centres unmarked) | 0.58 |
| O=c1n(CCCN2CCN(c3cccc(Cl)c3)CC2)nc2ccccn12 | 0.76 |
| CN1CCN2c3ccccc3Cc3ccccc3C2C1 (centres unmarked) | 0.55 |
| NC(N)=Nc1nc(CSCCC(N)=NS(N)(=O)=O)cs1 | 0.98 |
| CC(CN1c2ccccc2Sc2ccccc21)N(C)C (centres unmarked) | 0.49 |
| CC(C)NCC(O)COc1ccc(CCOCC2CC2)cc1 (centres unmarked) | 0.27 |
| CO/N=C(\C(=O)N[C@@H]1C(=O)N2C(C(=O)O)=C(COC(N)=O)CS[C@H]12)c1ccco1 | 0.88 |
| CNCCC(Oc1ccc(C(F)(F)F)cc1)c1ccccc1 (centres unmarked) | 0.54 |
| CC(C)c1nc(N(C)S(C)(=O)=O)nc(-c2ccc(F)cc2)c1/C=C/[C@@H](O)C[C@@H](O)CC(=O)O | 0.92 |
| CN1CCC(=C2c3ccccc3C=Cc3ccccc32)CC1 | 0.45 |
| CN(C)CCOC(c1ccccc1)c1ccccc1 [diphenhydramin] | 0.58 |
| Cc1cncc(CN2CCC(=C3c4ccc(Cl)cc4CCc4cccnc43)CC2)c1 | 0.55 |

----------
Recorded measurements of logkIAM, one per entry
assayProcedure: HPLC on IAM (immobilized artificial membrane) column, retention factor
Format: physicochemical
experimentalContext: logarithm of retention factor; IAM.PC.DD.2 column; phosphate buffer pH 7.4:acetonitrile 80:20
measurementLabel: logkIAM

| compound | measuredResult |
| --- | --- |
| CN1CCN=C(c2ccccc2)c2cc(Cl)ccc21 [medazepam] | 1.54 |
| C[C@]12CC[C@@H]3c4ccc(OC(=O)c5ccccc5)cc4CC[C@H]3[C@@H]1CC[C@@H]2O [estradiol benzoate] | 0.84 |
| COc1cc(N)c(Cl)cc1C(=O)NC1CCN(CCCOc2ccc(F)cc2)CC1OC (stereo not drawn) [cisapride] | 1.76 |
